- Target entity: Fuc(a1-3)[GalNAc(b1-4)]GlcNAc
- Assay explanation: glycan array binding signal (z-score within array); higher = stronger binding
- Cond: glycan notation: IUPAC condensed, linker removed
Shown is part of a subset that was picked to be rich in the strongest signals.
Reported endpoint: glycan array binding signal (z-score)
Number, no unit, nothing else.

response.value for SP15308F-bth-333-19-333 (Bacteroides thetaiotaomicron) (protein) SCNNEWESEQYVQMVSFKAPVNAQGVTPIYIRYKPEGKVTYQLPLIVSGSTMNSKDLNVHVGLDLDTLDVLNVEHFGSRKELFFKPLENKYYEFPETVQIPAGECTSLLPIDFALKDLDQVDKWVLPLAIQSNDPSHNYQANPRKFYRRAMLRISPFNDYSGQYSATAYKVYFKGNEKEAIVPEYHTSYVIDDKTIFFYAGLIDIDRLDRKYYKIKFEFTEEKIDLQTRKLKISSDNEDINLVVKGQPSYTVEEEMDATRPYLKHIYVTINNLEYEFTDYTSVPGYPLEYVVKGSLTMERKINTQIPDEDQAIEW (field: glycan array binding signal (z-score)) = 6.34
